# Test system: MDA-MB-231 breast
# test_description: NCI tumour cell line growth inhibition, 48 h
TGI values by entry
Express your answer in µM, writing the number without its unit.

Before answering, review these 4 worked examples.
compound	TGI, µM
O=C1CCCC/C1=C(\Br)I	32.5
O=C(NC1CCCCC1)OCc1c(COC(=O)NC2CCCCC2)c(-c2ccc(Cl)c(Cl)c2)n2c1CCC2	50.7
CCOC(=O)C1=C(C)NC(C)=C(C(=O)OCC)C1c1ccc(Cl)cc1	33.6
C[C@@H](c1ccccc1)C(CC#N)[C@H]1CCC[C@]1(O)C#Cc1ccc2c(c1)OCO2 (some centres undefined)	33.7

Proceed to the following item.
Query string: Give reported TGI value for Nc1nc(/C=C\c2ccc([N+](=O)[O-])s2)nc(N2CCOCC2)n1
Result string: 19.1

###

TGI values by entry
# System: MALME-3M melanoma
# test_description: NCI tumour cell line growth inhibition, 48 h

Before answering, review these 2 worked examples.
compound	target_or_system	TGI
O=C1OC(c2ccccc2)=N/C1=C\c1ccc(Br)cc1	MALME-3M melanoma	> 100 µM
C=CCN(N=O)C(=O)NCCCC(NC(C)=O)C(=O)NCc1ccccc1 (stereo unspecified)	MALME-3M melanoma	> 100 µM

Query string: Please tell me the measured TGI for Cc1ccc(NCCN(C)C)c2c(=O)c3cc(O)ccc3oc12 ; system: MALME-3M melanoma.
Result string: 27.3 µM

Query string: Please tell me the measured TGI for ClC(Cl)c1nc(-c2ccccc2)n2nc(-c3ccccc3)cc2n1 ; system: MALME-3M melanoma.
Result string: > 100 µM

Query string: Please tell me the measured TGI for COc1ccc([C@H]2CC(=O)C[C@H](c3ccc(OC)cc3OC)C23C(=O)c2ccccc2C3=O)c(OC)c1 ; system: MALME-3M melanoma.
Result string: > 100 µM

Query string: Please tell me the measured TGI for COc1ccc(OC)c2c1C=C[C@H](C1(C)SCCS1)C2C(C)=O (stereo partly specified) ; system: MALME-3M melanoma.
Result string: 89.8 µM

Query string: Please tell me the measured TGI for Cc1c(-c2c(C)c(=O)c3c(C(C)C)c(=O)c(=O)c(C=O)c-3c2=O)c(O)c2c(C=O)c(O)c(O)c(C(C)C)c2c1O ; system: MALME-3M melanoma.
Result string: 15.2 µM

###

# System: SN12C renal
# test_description: NCI tumour cell line growth inhibition, 48 h
observed_property: GI50

molecule	GI50
CC(C)(C)C(=O)OCCNc1nc(-c2ccccc2)nc2ccccc12	15.1 µM
O=C(NC1CCCCC1)OCc1c(COC(=O)NC2CCCCC2)c(-c2ccc(Cl)c(Cl)c2)n2c1CCC2	3.58 µM
ClC(Cl)c1nc(-c2ccccc2)n2nc(-c3ccccc3)cc2n1	> 100 µM
COc1ccc(/C=C/C(=O)c2ccc(Cl)cc2Cl)cc1	20.4 µM
O=S(=O)(Nc1ccc(Cl)c(F)c1)c1ccc(-c2cnc(C3CC3)o2)cc1	0.808 µM

Query string: Give reported GI50 value for O=C1OCC(C#Cc2ccccc2)=C1Br
Result string: 3.14 µM

Query string: Give reported GI50 value for CC(=O)Nc1c(Br)cc2c(c1Br)Cc1cc(Br)ccc1-2
Result string: 4.67 µM

Query string: Give reported GI50 value for C=C1C(=O)O[C@@H]2[C@@H]3O[C@@H](C[C@@H]13)[C@](C)(O)CC/C=C(\C)CCC[C@H]2C
Result string: 2.06 µM

Query string: Give reported GI50 value for CN1C[C@@H](c2ccc(Cl)cc2)[C@]2(NC(=S)N(c3ccc(F)c(Cl)c3)C2=O)[C@@]12C(=O)NC1C=CC(Cl)=C[C@H]12 (stereo partly specified)
Result string: 1.86 µM

Query string: Give reported GI50 value for COc1cc(-c2nn(-c3ccc(NC(=O)NCCNS(=O)(=O)c4ccc(F)cc4)cc3)cc2-c2ccncc2)ccc1Cl
Result string: 0.733 µM

Query string: Give reported GI50 value for CCN(Cc1ccccn1)c1ccc(CO)c(Cl)c1
Result string: > 100 µM

###

# Test system: DMS 273 small cell lung
# test_description: NCI tumour cell line growth inhibition, 48 h
observed_property: TGI (µM)
Express your answer in µM, writing the number without its unit.

Before answering, review these 3 worked examples.
molecule	observed_property	units	val
CCn1c(=O)nc2n(-c3ccccc3)c3ccccc3nc-2c1=O	TGI	µM	34.7
C[C@@H](CC(O)C1OC1(C)C)[C@@H]1CC[C@]2(C)C3=CCC4C(C)(C)C(O)CC[C@]4(C)C3CCC12C (stereo not given in full)	TGI	µM	29.2
CCN(CC)c1ccc2cc3ccc(=[N+](CC)CC)cc-3oc2c1	TGI	µM	2.49

Proceed to the following item.
Query string: Please tell me the measured TGI for c1ccc2nc(-c3ccc4c(c3)OCO4)ccc2c1 ; system: DMS 273 small cell lung.
Result string: 62.8

###

# System: 786-0 renal
# test_description: NCI tumour cell line growth inhibition, 48 h
observed_property: TGI (µM)
Express your answer in µM, writing the number without its unit.

Before answering, review these 3 worked examples.
compound	TGI [µM]
Cc1cc(C)c([S@@](=O)O[C@@H]2[C@H]3OC(C)(C)O[C@H]3O[C@@H]2[C@H]2COC(C)(C)O2)c(C)c1	64.6
CC[C@H](C)[C@H]1NC(=O)[C@@H](NC(=O)[C@@H](CC(C)C)N(C)C(=O)C2CCCN2C(=O)[C@H](C)O)[C@@H](C)OC(=O)[C@@H]2Cc3ccccc3CN2C(=O)[C@@H]2CCCN2C(=O)[C@H](CC(C)C)NC(=O)[C@@H](C)C(=O)[C@H](C(C)C)OC(=O)C[C@@H]1O (some centres undefined)	11.1
O=[N+]([O-])c1ccc2sc(C=Nc3ccc(O)cc3)cc2c1	40.4

Proceed to the following item.
Query string: Give reported TGI value for C[C@@H](c1ccccc1)C(CC#N)[C@H]1CCC[C@]1(O)C#Cc1ccc2c(c1)OCO2 (some centres undefined)
Result string: 31.3

###

# System: IGROV1 ovarian
# test_description: NCI tumour cell line growth inhibition, 48 h; in the data active means GI50 below about 0.43 µM; inactive means the rest
Mark one answer only. Choices: Yes = active, No = inactive

Field: example entries. Status: answers known.
compound	target_or_system	label_class
N#Cc1cnc(=O)n(C2CC(O)C(CO)O2)c1 (configuration not stated)	IGROV1 ovarian	No
COc1ccc(C2=C(c3cn(C)c4ccccc34)C(=O)OC2)cc1OC	IGROV1 ovarian	No
ClC(Cl)c1nc(-c2ccccc2)n2nc(-c3ccccc3)cc2n1	IGROV1 ovarian	No
C=C1C(=O)O[C@@H]2[C@@H]3O[C@@H](C[C@@H]13)[C@](C)(O)CC/C=C(\C)CCC[C@H]2C	IGROV1 ovarian	No
O=C(Nc1ccc(F)cc1F)c1cc(F)ccc1O	IGROV1 ovarian	No

Query string: Hi, sorry to bother you, what did the test record for S=c1ssnc1-c1ccccn1 ?
Result string: No

Query string: Hi, sorry to bother you, what did the test record for O=S(=O)(Nc1ccc(Cl)c(F)c1)c1ccc(-c2cnc(C3CC3)o2)cc1 ?
Result string: No

Query string: Hi, sorry to bother you, what did the test record for O=C1CCc2c(Oc3ccc4c(c3)[C@H]3[C@@H](O4)[C@@H]3c3nc4ccc(C(F)(F)F)cc4[nH]3)ccnc2N1 ?
Result string: No

Query string: Hi, sorry to bother you, what did the test record for C=CC(C)c1cccc(C=O)c1O (configuration not stated) ?
Result string: No

Query string: Hi, sorry to bother you, what did the test record for C#C[C@@]1(O)[C@@H](CO)O[C@@H](n2cc(Br)c3c(N)ncnc32)[C@@H]1O ?
Result string: Yes

Query string: Hi, sorry to bother you, what did the test record for COc1ccc2c(c1)c1c(C)c3cnccc3c(C)c1n2CCCN ?
Result string: Yes

Query string: Hi, sorry to bother you, what did the test record for CC(C)OP(=O)(OC(C)C)c1ncc(-c2ccc(C(F)(F)F)cc2)c(NC2CCCCCC2)n1 ?
Result string: No

###

# Test system: MDA-MB-435
# test_description: NCI tumour cell line growth inhibition, 48 h
observed_property: TGI (µM)
Express your answer in µM, writing the number without its unit.

Before answering, review these 6 worked examples.
compound	units	val
C=C1C(=O)O[C@@H]2[C@@H]3O[C@@H](C[C@@H]13)[C@](C)(O)CC/C=C(\C)CCC[C@H]2C	µM	6.17
Oc1ccc(C=NCC2CCCN3CCCCC23)cc1 (configuration not stated)	µM	27
Cc1nc2ccc(Cl)cc2c(Cl)c1CCCl	µM	31.2
C#C[C@@]1(O)[C@@H](CO)O[C@@H](n2cc(Br)c3c(N)ncnc32)[C@@H]1O	µM	10.3
CN1C[C@@H](c2ccc(Cl)cc2)[C@]2(NC(=S)N(c3ccc(F)c(Cl)c3)C2=O)[C@@]12C(=O)NC1C=CC(Cl)=C[C@H]12 (some centres not stated)	µM	11.2
COC(=O)[C@]1(c2cc3ccccc3[nH]2)CC2CN(C(=O)OCc3ccccc3)C1C=C2OC (some centres not stated)	µM	55.3

Proceed to the following item.
Query string: Give reported TGI value for O=C1CSC2=NC3=C(CSC/C3=C\c3ccc(Cl)cc3)C(c3ccc(Cl)cc3)N12 (configuration not stated)
Result string: 66
